B1: Gamma-crystallin S, residues 96 to 176; numbered along this chain, P22914 (parent)
chain: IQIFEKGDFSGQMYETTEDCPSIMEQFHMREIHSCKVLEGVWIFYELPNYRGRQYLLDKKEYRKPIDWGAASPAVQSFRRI

variants of: B1; assay: abundance fitness (aPCA) (normalised: wild type 0, dead -1); higher = more abundant; growth selection in yeast, the domain comes from the species named; details: Homo sapiens
Measured quantity: abundance fitness

1) V37M | 0.049
2) K60E | -0.049
3) T17V | -0.031
4) K36H | -0.013
5) R30M | 0.047
6) L57S | 0.171
7) S77P | -0.457
8) T16F | 0.148
9) I3T | -0.185
10) F9E | -0.18
11) Y62N | 0.002
12) W42G | -1.02
13) T16K | -0.129
14) K64L | -0.07
15) F27W | 0.03
16) L47G | -0.051
17) G52Q | -1
18) G7E | -0.027
19) T16D | -0.002
20) Q26C | -0.123
21) L57G | 0.026
22) M24K | 0.335
23) R53H | -0.036
24) R63S | -0.022
